# testedOn: Gal3S(b1-3)[Fuc(a1-4)]GlcNAc
# measurementDescription: glycan array binding signal (z-score within array); higher = stronger binding
# conditions: glycan notation: IUPAC condensed, linker removed
This excerpt belongs to a sample that is enriched for the strongest signals.
resultType: glycan array binding signal (z-score)
Lab note: record just the number, no unit beside it.

## Task Returns the measured glycan array binding signal (z-score) for the input binder. Input: FBG2 (Homo sapiens), Q9NRD1 (protein) MDAPHSKAALDSINELPENILLELFTHVPARQLLLNCRLVCSLWRDLIDLMTLWKRKCLREGFITKDWDQPVADWKIFYFLRSLHRNLLRNPCAEEDMFAWQIDFNGGDRWKVESLPGAHGTDFPDPKVKKYFVTSYEMCLKSQLVDLVAEGYWEELLDTFRPDIVVKDWFAARADCGCTYQLKVQLASADYFVLASFEPPPVTIQQWNNATWTEVSYTFSDYPRGVRYILFQHGGRDTQYWAGWYGPRVTNSSIVVSPKMTRNQASSEAQPGQKHGQEEAAQSPYRAVVQIFPPPVTIQQWNNATWTEVSYTFSDYPRGVRYILFQHGGRDTQYWAGWYGPRVTNSSIVVSPKMTRNQASSEAQPGQKHGQEEAAQSPYRAVVQI
## Result 1.01
